# target_of_assay: T1, CEACAM1 (Sino Biological) (human, UniProt P13688 35-428, limits assumed)
# T1 construct: may be the same as CEACAM1-HIS; also called hCEACAM1; biotinylated soluble CEACAM1
# T1 sequence: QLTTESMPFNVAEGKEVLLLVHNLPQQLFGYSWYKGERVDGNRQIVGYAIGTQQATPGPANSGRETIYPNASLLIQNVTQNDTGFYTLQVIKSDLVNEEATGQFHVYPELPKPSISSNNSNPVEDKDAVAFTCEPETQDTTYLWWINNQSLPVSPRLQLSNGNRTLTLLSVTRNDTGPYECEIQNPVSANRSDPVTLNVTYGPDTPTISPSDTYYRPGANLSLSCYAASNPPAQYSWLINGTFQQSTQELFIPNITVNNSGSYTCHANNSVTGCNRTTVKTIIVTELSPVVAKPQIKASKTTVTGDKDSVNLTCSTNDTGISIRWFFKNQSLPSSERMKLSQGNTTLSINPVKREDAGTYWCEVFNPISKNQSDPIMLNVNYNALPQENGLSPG
# assay_notes: SPR single-cycle
List of fold better than Parent (KD) values.
Report as a plain number; the unit fold is understood.

>  <binder>
Parent VH/L6 (antibody, IgG4, V domains shown, IgG4 S241P, kappa) VH: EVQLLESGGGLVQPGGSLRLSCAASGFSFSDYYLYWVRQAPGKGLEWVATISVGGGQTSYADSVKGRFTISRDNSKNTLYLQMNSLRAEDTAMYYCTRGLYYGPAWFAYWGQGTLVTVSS VL: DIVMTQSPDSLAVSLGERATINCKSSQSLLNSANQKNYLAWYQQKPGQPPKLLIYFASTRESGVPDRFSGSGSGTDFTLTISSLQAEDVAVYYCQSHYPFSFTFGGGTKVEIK

>  <fold better than Parent (KD), fold>
2.81

$$$$

// below: fold better than Parent (KD) requested for another binder
Input: Hello, please tell me recorded fold better than Parent (KD) for this one: He13/L18 (antibody, IgG4, V domains shown, IgG4 S241P, kappa) VH: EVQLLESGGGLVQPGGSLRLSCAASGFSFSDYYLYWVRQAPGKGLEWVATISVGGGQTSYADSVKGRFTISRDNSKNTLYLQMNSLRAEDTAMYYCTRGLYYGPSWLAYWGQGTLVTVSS VL: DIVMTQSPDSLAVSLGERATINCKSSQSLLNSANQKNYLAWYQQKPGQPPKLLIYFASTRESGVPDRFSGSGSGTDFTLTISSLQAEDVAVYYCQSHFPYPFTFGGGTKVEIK
Output: 1.54
